// data source = patent US20240108738A1

# SYSTEM TESTED: T1, Human NKp46 His tag (Acro Biosystems, NC1-H52H4) (human, UniProt O76036 22-255)
# T1 construct: bought; also called human NKp46-his tagged protein
# T1 sequence (O76036 22-255 limits assumed): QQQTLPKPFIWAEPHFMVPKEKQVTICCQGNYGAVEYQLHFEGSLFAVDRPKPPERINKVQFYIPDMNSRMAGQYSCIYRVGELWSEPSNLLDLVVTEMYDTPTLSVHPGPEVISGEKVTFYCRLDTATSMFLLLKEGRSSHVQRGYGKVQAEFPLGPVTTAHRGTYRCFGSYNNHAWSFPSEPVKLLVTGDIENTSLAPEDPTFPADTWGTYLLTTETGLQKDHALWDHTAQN
# ASSAY TEXT: FP competition vs BCY15035
Numbered stars: 1 amine (or outer) side, 2 acyl side, 3 side chain; on linkers, the order of the positions; unused ones are H or OH. Bridge positions count the residues as written; N and C are the ends. Square brackets hold non-standard residues; d marks the D form. Ends that are not written are not given here. TATA = O=C(CC[*:1])N1CN(C(=O)CC[*:2])CN(C(=O)CC[*:3])C1; Phe(4-CF3) = N[C@@H](Cc1ccc(C(F)(F)F)cc1)C(=O)O; 2Nal = N[C@@H](Cc1ccc2ccccc2c1)C(=O)O; Cba = N[C@@H](CC1CCC1)C(=O)O; Aib = CC(C)(N)C(=O)O
ASSAY METRIC: pKi
Bear in mind: pKi is minus log10 of a mol/L concentration; give just that figure.

Reference set (5 entries):
BINDER | READING
ACYLADYLCGDEYCA-NH2 (linker 2-9-14 via TATA; also: cyclised with TATA, TATB or TBMT, scaffold TATA) [BCY15655] | 6.49
ACYLPD[2Nal]LCGDEYCA-NH2 (linker 2-9-14 via TATA; N-terminus assumed; SMILES CC(C)C[C@@H]1NC(=O)[C@H](Cc2ccc3ccccc3c2)NC(=O)[C@H](CC(=O)O)NC(=O)[C@@H]2CCCN2C(=O)[C@H](CC(C)C)NC(=O)[C@H](Cc2ccc(O)cc2)NC(=O)[C@@H](NC(=O)[C@H](C)N)CSCCC(=O)N2CN3CN(C2)C(=O)CCSC[C@@H](C(=O)N[C@@H](C)C(N)=O)NC(=O)[C@H](Cc2ccc(O)cc2)NC(=O)[C@H](CCC(=O)O)NC(=O)[C@H](CC(=O)O)NC(=O)CNC(=O)[C@H](CSCCC3=O)NC1=O, scaffold TATA) [BCY15644] | 6.80
ACYL[Aib]DYLCGDEYCA-NH2 (linker 2-9-14 via TATA, scaffold TATA) [BCY15642] | 6.04
ACYLPDW[Cba]CGDEYCA-NH2 (linker 2-9-14 via TATA, scaffold TATA) [BCY15649] | 6.41
ACYLPAYLCGDEYCA-NH2 (linker 2-9-14 via TATA; also: cyclised with TATA, TATB or TBMT, scaffold TATA) [BCY15656] | 7.41

Shifting focus to the binder that follows.
Input ACYLPD[Phe(4-CF3)]LCGDEYCA-NH2 (linker 2-9-14 via TATA; N-terminus assumed; SMILES CC(C)C[C@@H]1NC(=O)[C@H](Cc2ccc(C(F)(F)F)cc2)NC(=O)[C@H](CC(=O)O)NC(=O)[C@@H]2CCCN2C(=O)[C@H](CC(C)C)NC(=O)[C@H](Cc2ccc(O)cc2)NC(=O)[C@@H](NC(=O)[C@H](C)N)CSCCC(=O)N2CN3CN(C2)C(=O)CCSC[C@@H](C(=O)N[C@@H](C)C(N)=O)NC(=O)[C@H](Cc2ccc(O)cc2)NC(=O)[C@H](CCC(=O)O)NC(=O)[C@H](CC(=O)O)NC(=O)CNC(=O)[C@H](CSCCC3=O)NC1=O, scaffold TATA) [BCY16142] . Output pKi: 6.50
